# credit: patent US20250099420A1

- systemUnderTest: GPR139 (Homo sapiens)
- Sequence (Q6DWJ6 whole entry): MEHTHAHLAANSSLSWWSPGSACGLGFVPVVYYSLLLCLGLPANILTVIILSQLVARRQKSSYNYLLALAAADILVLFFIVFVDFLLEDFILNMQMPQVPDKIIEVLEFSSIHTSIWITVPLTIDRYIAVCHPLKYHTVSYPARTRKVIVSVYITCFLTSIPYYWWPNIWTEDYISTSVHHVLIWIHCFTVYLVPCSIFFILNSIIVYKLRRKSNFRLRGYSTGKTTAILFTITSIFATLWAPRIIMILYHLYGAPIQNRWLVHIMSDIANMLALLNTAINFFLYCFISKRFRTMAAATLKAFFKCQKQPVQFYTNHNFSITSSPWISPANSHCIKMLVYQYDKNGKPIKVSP
- experiment: GPR139 Agonist titration / agonist counterscreen assay (calcium detection, HEK-GPR139 cells)
- Format: cell-based
- Set-up: expressed in transfected cells; host or cells: HEK Aequorin cells, Maxcyte transient transfection
- runConditions: GPR139 Agonist Activity; values printed in E-notation without unit; read-out: EC50
valueType: EC50 (nM)

[[record]]
compound = "O=C(CC(C(=O)N1CCc2ccccc21)n1ccnc1)N1CCCCCC1 (centres unmarked)"
systemundertest = "GPR139 (Homo sapiens)"
unittext = "nM"
recordednumber = 229

[[record]]
compound = "O=C(O)c1ccccc1C(=O)c1cccc2ccccc12"
systemundertest = "GPR139 (Homo sapiens)"
unittext = "nM"
recordednumber = 254

[[record]]
compound = "CN1CCC(Oc2cc(-c3cn[nH]c3)ccc2NC(=O)C2COc3ccc(F)cc3C2)C1 (centres unmarked)"
systemundertest = "GPR139 (Homo sapiens)"
unittext = "nM"
recordednumber = 9


1. Cc1ccc(SCC(=O)NNC(=O)c2cccs2)cc1
2. COc1ccccc1C(=O)NNC(=O)C(C)Oc1ccc(Cl)cc1Cl (centres unmarked)
Hi! Which is lower in terms of EC50, the first one 1 or the second one 2 ? Field: selected label. Fill in the label of the entry you choose.
2
